The measured values listed here are drawn from paper PMC3834177.

# assay-notes: Midostaurin PK when administered with rifampicin
# experimental-setup: human, plasma, oral, t 1/2, adjusted geometric mean, plasma; Placebo + midostaurin arm, rifampicin study, n = 20
Overview of reported half-life across a group of compounds:
// note: answer is a bare numeric in h

| compound | half-life / h |
| --- | --- |
| CO[C@@H]1[C@H](N(C)C(=O)c2ccccc2)C[C@H]2O[C@]1(C)n1c3ccccc3c3c4c(c5c6ccccc6n2c5c31)C(=O)NC4O (mixture of isomers) | 175 |

From here, focus on the item given below.
Recorded half-life for CO[C@@H]1[C@H](N(C)C(=O)c2ccccc2)C[C@H]2O[C@]1(C)n1c3ccccc3c3c4c(c5c6ccccc6n2c5c31)C(=O)NC4 , please?
23

----------
# assay-notes: Midazolam PK when administered with midostaurin
# experimental-setup: human, plasma, oral, 4 mg, AUC0–inf, adjusted geometric mean, plasma; Midazolam (day 8), midazolam 4 mg alone after repeated midostaurin, n = 18
recorded-endpoint: AUC(0-inf) (ng·h/mL)
// note: answer is a bare numeric in ng·h/mL

Recorded AUC(0-inf) for Cc1ncc2n1-c1ccc(Cl)cc1C(c1ccccc1F)=NC2 , please?
47

----------
# assay-notes: Midazolam PK when administered with midostaurin
# experimental-setup: human, plasma, oral, 4 mg, C max, adjusted geometric mean, plasma; Midazolam (day 1), n = 18
recorded-endpoint: Cmax (ng/mL)
// note: answer is a bare numeric in ng/mL

Recorded Cmax for Cc1ncc2n1-c1ccc(Cl)cc1C(c1ccccc1F)=NC2 , please?
13.5

----------
# assay-notes: Midostaurin PK when administered with rifampicin
# experimental-setup: human, plasma, oral, C max, adjusted geometric mean, plasma; Placebo + midostaurin arm, rifampicin study, n = 20
Overview of reported Cmax across a group of molecules:

Recorded Cmax for CO[C@@H]1[C@H](N(C)C(=O)c2ccccc2)C[C@H]2O[C@]1(C)n1c3ccccc3c3c4c(c5c6ccccc6n2c5c31)C(=O)NC4 , please?
1620 ng/mL

How about this molecule: CO[C@@H]1[C@H](N(C)C(=O)c2ccccc2)C[C@H]2O[C@]1(C)n1c3ccccc3c3c4c(c5c6ccccc6n2c5c31)C(=O)NC4O (mixture of isomers)
196 ng/mL

----------
Overview of reported Cmax across a group of compounds:
# assay-notes: Midostaurin PK when administered with ketoconazole
# experimental-setup: human, plasma, oral, C max, adjusted geometric mean, plasma; Placebo + midostaurin arm, ketoconazole study, n = 18
// note: answer is a bare numeric in ng/mL

| compound | recorded-number |
| --- | --- |
| CO[C@@H]1[C@H](N(C)C(=O)c2ccccc2)C[C@H]2O[C@]1(C)n1c3ccccc3c3c4c(c5c6ccccc6n2c5c31)C(=O)NC4 | 1590 |

From here, focus on the item given below.
Recorded Cmax for CO[C@@H]1[C@H](N(C)C(=O)c2ccccc2)C[C@H]2O[C@]1(C)n1c3ccccc3c3c4c(c5c6ccccc6n2c5c31)C(=O)NC4O (mixture of isomers) , please?
145

----------
# assay-notes: Midostaurin PK when administered with ketoconazole
# experimental-setup: human, plasma, oral, C max, adjusted geometric mean, plasma; Ketoconazole + midostaurin arm, n = 18
Overview of reported Cmax across a group of compounds:
// note: answer is a bare numeric in ng/mL

| compound | u | Cmax |
| --- | --- | --- |
| CO[C@@H]1[C@H](N(C)C(=O)c2ccccc2)C[C@H]2O[C@]1(C)n1c3ccccc3c3c4c(c5c6ccccc6n2c5c31)C(=O)NC4 | ng/mL | 2890 |

From here, focus on the item given below.
Recorded Cmax for CO[C@@H]1[C@H](N(C)C(=O)c2ccccc2)C[C@H]2O[C@]1(C)n1c3ccccc3c3c4c(c5c6ccccc6n2c5c31)C(=O)NC4O (mixture of isomers) , please?
70.9
